Subject of test: Solute carrier family 2, facilitated glucose transporter member 1 (Homo sapiens) (UniProt P11166)
Sequence (P11166 whole entry): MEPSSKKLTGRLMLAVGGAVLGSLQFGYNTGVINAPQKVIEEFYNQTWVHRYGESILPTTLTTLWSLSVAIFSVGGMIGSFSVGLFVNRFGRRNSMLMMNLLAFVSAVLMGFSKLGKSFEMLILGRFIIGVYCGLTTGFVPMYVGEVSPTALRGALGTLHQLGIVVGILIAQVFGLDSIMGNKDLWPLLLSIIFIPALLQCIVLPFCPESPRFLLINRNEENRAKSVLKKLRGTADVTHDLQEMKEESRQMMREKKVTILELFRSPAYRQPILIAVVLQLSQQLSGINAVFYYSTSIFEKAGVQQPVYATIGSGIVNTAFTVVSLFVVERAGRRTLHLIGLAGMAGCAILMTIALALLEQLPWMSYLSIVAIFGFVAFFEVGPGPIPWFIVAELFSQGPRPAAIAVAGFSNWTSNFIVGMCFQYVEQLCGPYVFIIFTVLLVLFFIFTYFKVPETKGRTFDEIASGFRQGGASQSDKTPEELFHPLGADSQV
Protocol details: ST_JUDE_LEISH: Cytotoxicity at 2uM final concentration against transgenic Leishmania Mexicana promastigotes LmGLUT1 that are glucose transport deficient and complemented with the human glucose transporter GLUT1. Activity is measured by DNA content using SYBR green in vitro
Assay type: functional
Quick list: inhibition per entry.
Please respond with the number in % and leave the unit unwritten.

CCOC(=O)NCC(=O)Nc1cccc(-c2cccc(-c3nc4cccc(C)c4[nH]3)c2)c1 ... 1.11
COC(=O)c1cc(OC2CCOC2=O)cc2c1OC(C)(C)O2 (stereo not given) ... 10.9
Cc1cc(N2CCCC2)nc(Nc2ccc(NC(=O)C(C)(C)C)cc2)n1 ... 0.4
COc1ccc2ncc(C#N)c(CCN3CCC(NCc4ccc5c(c4)NC(=O)CO5)CC3)c2c1 ... 12.7

// switching to the query compound
So what does the record say about inhibition for CCCCCC(C)C(C)c1cc(O)c2c(c1)OC(C)(C)C=C2c1cc[n+]([O-])cc1 (stereo not given) ?
11

====

Subject of test: Glucose transporter (Leishmania mexicana) (UniProt O61059)
Protocol details: ST_JUDE_LEISH: Cytotoxicity at 2uM final concentration against transgenic Leishmania Mexicana promastigotes LmGT2 that are glucose transport deficient and complemented with the L. Mexicana glucose transporter 2. Activity is measured by DNA content using SYBR green in vitro
Assay type: functional
Experimental readout: inhibition (%)
Please respond with the number in % and leave the unit unwritten.

Recorded inhibition, per entry:
COc1cc(CNCCCNc2nc(=O)c3sccc3[nH]2)c2[nH]cc(Cl)c2c1 ... 87.6
Cc1noc(-c2ccccc2)c1NC(=O)NC1CCN(CCCCCNC(=O)/C=C/c2ccc(Cl)c(Cl)c2)CC1 ... 3.4
CCn1c(CN2CCC(C)CC2)nc2cc(NC(=O)c3cccs3)ccc21 ... 12.5
Cc1cc(Cl)ccc1NC(=O)NCCCCCN1CCC(c2c[nH]c3ccccc23)CC1 ... 10.4
Nc1c(Cl)cc(C(O)CNCCCCCCOCCc2ccc(CO)s2)cc1Cl (stereo not drawn) ... 2.21

So what does the record say about inhibition for c1ccc(-c2ccc(CNCCCNc3nc4ccccc4[nH]3)cc2)cc1 ?
6.92

So what does the record say about inhibition for CCN(CC)CCN(Cc1ccc(-c2ccc(C(F)(F)F)cc2)cc1)C(=O)Cn1c(SCc2ccc(F)cc2)nc(=O)c2ccccc21 ?
1.8

So what does the record say about inhibition for Cc1nc(-c2cccc(C(=O)Nc3cnc4ccccc4c3)c2)no1 ?
3.52

====

Subject of test: Solute carrier family 2, facilitated glucose transporter member 1 (Homo sapiens)
Protocol details: ST_JUDE_LEISH: Cytotoxicity at 2uM final concentration against transgenic Leishmania Mexicana promastigotes LmGLUT1 that are glucose transport deficient and complemented with the human glucose transporter GLUT1. Activity is measured by DNA content using SYBR green in vitro
Assay type: functional
Experimental readout: inhibition (%)
Please respond with the number in % and leave the unit unwritten.

Recorded inhibition, per entry:
Cc1cccc(C)c1C1CCN(CCCCNC(=O)c2cc3ccccc3[nH]2)CC1 ... 1.79
CS(=O)(=O)CCNCc1nc(-c2ccc3ncnc(Nc4ccc(OCc5ccccc5)c(Cl)c4)c3c2)cs1 ... 4.21
Cc1[nH]c(C)c(-c2ccc(CCc3ccc(N)cc3)cc2)c(=O)c1Cl ... 4.43
Cc1nn(-c2ccccc2)nc1C(=O)N(Cc1ccc(-c2ccc(CNCCc3ccc(S(C)(=O)=O)cc3)cn2)cc1)C(C)CN(C)C (stereo not drawn) ... 0.95
CC(C)(C)CC(C)(C)c1ccc(O)c(C(=O)Nc2cccc([N+](=O)[O-])c2)c1 ... 1.48

// switching to the query compound
So what does the record say about inhibition for COc1cccc2cc(C(=O)N[C@@H](CC(C)C)C(=O)N[C@H](/C=N/NC(=O)N3CCN(C)CC3)CCc3ccccc3)oc12 ?
9.32
